Where these numbers come from: patent US20250129140A1

Listed binders paired with reported kon
Target: T1, recombinant HCMV pentamer (strain VR1814) consisting of gH, gL, UL128, UL130 and UL131A (human cytomegalovirus (strain VR1814))
T1 construct: also called recombinant pentamer; Native Antigen CMV-PENT-100
Assay: BLI (Octet RED); antibody captured on anti-mouse Fc (AMC) biosensor, recombinant pentamer 100 µg/mL in solution; 1:1 model
// unit must come after the numeric part

Examples with answers:
14E1 (antibody, V domains shown, also called 14E1 (ms)) VH: QVQLVQSGAEVKKPGASVKVSCKASGYTFTSYSISWVRQAPGQGLEWMGWINTYNGNTNYAQRVQARVTMTTDTSTSTAYMELRSLRSDDTAVYYCARDHGFFFDYWGQGNLVTVSS VL: DIQLTQSPSFLSASVGDRVTITCWASQGISSYLAWYQQKPGKAPKLLIYAASTLQSGVPSRFSGSGSGTEFTLTISSLQPEDFATYYCQQLNSYPYTFGQGTQLEIK: 24400 M⁻¹ s⁻¹
15G11 (antibody, V domains shown, also called 15G11 (ms); anti-gH mAb 15G11) VH: QVQLQESGPGLVKPSQTLSLTCTVSGGSISSGYYYWNWIRQHPGKGLECIGYIYYSGTTYYNPSLKSRLFISVDTSKNQFSLKLRSVTAADTAVYYCARGGLGAFDIWGQGTMVTVSS VL: EIVLTQSPGTLSLSPGERATLSCRASQSVSSSYLAWYQQKPGQAPRLLIYGASSRAPGIPDRFSGTGSGTDFTLTISRLEPEDFAVYYCQQYGISPLTFGGGTKVEIK: 38200 M⁻¹ s⁻¹

Ask: Look at this binder and give its reported kon. 13G1 (antibody, V domains shown, also called 13G1 (ms); anti-gH mAb 13G1) VH: QVTLKESGPVLVKPTETLTLTCTVSGFSLYNARMGVTWIRQPPGKALEWLAHIFSNDERSYTSSLKNRLTISKDTSKSQVVLTMTNMDPVDTATYYCARIDYSNYIGNWFDPWGQGTLVTVSS VL: DIQMTQSPSSLSASVGDRVTITCRASQSISNYLNWYQQKPGKAPKLLIYAASSLQGGVPSRFSGSGSGTDFTLTISSLQPEDFTTYYCQQSYSTPFTFGGGTKVEIK
Reply: 12900 M⁻¹ s⁻¹
